method-notes: Pharmacokinetics after intravenous and oral administration in rats
Format: in vivo
setup-conditions: Rats; iv dosing; dose 1 mg/kg (0.5 for Ex. 1, 10, 11, 35; 0.48 for Ex. 24)
Procedure: The LC/MS/MS system used in the analysis consists of an Agilent 1200 Series vacuum degasser, binary pump, well-plate autosampler, thermostatted column compartment, the Agilent G6430 Triple Quadrupole Mass Spectrometer with an electrosprayionization (ESI) source. Quantitative analysis was carried out using MRM mode. The parameters for MRM transitions are in the Table A. […] The compounds disclosed herein are assessed in pharmacokinetic studies in mice, rats, dogs or monkeys. […]
Label key: Yes means CL/F under 40 mL/min/kg; No means CL/F of 40 mL/min/kg or more.

                                   molecule  assigned_class
0  CCc1noc(-c2c(N)ncnc2N[C@@H](CC)c2nc3cccc(Cl)c3c(=O)n2C2CC2)n1 [Ex. 56]              No
1  CC[C@H](Nc1ncnc(N)c1-c1ccccn1)c1nc2cccc(Cl)c2c(=O)n1C1CC1 [Ex. 11]             Yes
2  CC[C@H](Nc1ncnc(N)c1-c1nc(C)no1)c1nc2cccc(C)c2c(=O)n1-c1ccccc1 [Ex. 37]              No
3  C[C@H](Nc1ncnc(N)c1-c1ncn(C)n1)c1nc2cccc(Cl)c2c(=O)n1C1CC1 [Ex. 44]              No
4  CC[C@H](Nc1ncnc(N)c1-c1ccn(C)n1)c1nc2cccc(Cl)c2c(=O)n1C1CC1 [Ex. 51]             Yes
5  CC[C@H](Nc1ncnc(N)c1C1=N[C@@H](C)CO1)c1nc2cccc(Cl)c2c(=O)n1-c1ccccc1 [Ex. 6]              No
6  CC[C@H](Nc1ncnc(N)c1-c1nc(C)no1)c1nc2cccc(Cl)c2c(=O)n1-c1ccccc1 [Ex. 3]              No
7  CC[C@H](Nc1ncnc(N)c1-c1noc(C)n1)c1nc2cccc(Cl)c2c(=O)n1C1CC1 [Ex. 12]             Yes

Req: Hello, I'm reviewing records and need to know if CL/F of CC[C@H](Nc1ncnc(N)c1-c1nnn(C)n1)c1nc2cccc(F)c2c(=O)n1-c1ccccc1 [Ex. 43] is below 40 mL/min/kg. Could you check?
Resp: Yes

Req: Hello, I'm reviewing records and need to know if CL/F of CC[C@H](Nc1ncnc(N)c1-c1nnc(C)o1)c1nc2cccc(-c3cnn(C)c3)c2c(=O)n1-c1ccccc1 [Ex. 73] is below 40 mL/min/kg. Could you check?
Resp: Yes

Req: Hello, I'm reviewing records and need to know if CL/F of CC[C@H](Nc1ncnc(N)c1-c1ccon1)c1nc2cccc(F)c2c(=O)n1C1CC1 [Ex. 48] is below 40 mL/min/kg. Could you check?
Resp: No
